Data provenance is patent US7524853B2.

- TARGET: 17β-hydroxysteroid dehydrogenase type 2 (17β-HSD type 2) (Homo sapiens, UniProt P37059)
- Construct: expressed in transfected cells; host or cells: MCF-7
- Sequence (P37059 whole entry): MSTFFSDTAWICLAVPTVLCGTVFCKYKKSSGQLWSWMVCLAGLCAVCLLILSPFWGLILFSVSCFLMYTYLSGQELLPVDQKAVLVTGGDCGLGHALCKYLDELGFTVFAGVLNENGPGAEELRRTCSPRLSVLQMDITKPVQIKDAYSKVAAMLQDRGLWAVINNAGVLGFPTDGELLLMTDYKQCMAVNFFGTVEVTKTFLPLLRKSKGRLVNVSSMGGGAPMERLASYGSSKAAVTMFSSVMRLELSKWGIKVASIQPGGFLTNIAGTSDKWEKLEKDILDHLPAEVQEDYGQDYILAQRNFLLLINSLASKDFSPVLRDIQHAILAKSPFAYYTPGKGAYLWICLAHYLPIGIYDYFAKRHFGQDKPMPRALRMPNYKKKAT
- EXPERIMENT: Inhibition of 17β-HSD type 2 in MCF-7 cells stably expressing the isoenzyme (tritium labeled estradiol conversion, HPLC)
- Format: cell-based
- MEASUREMENT_CONDITIONS: MCF7; 1 μM test compound; MCF-7 cells expressing 17β-HSD type 2; 2 nM tritium labeled estradiol; read-out: % Inhibition HSD2 1 μM
EXPERIMENTAL_READOUT: inhibition at 1 µM (%)

// solved cases for inhibition at 1 µM follow
COMPOUND	inhibition at 1 µM, %
COc1cccc(-c2nc3sc4c(OC(C)=O)cccc4c3c(=O)n2Cc2ccccc2)c1	26.4
COc1cc(-c2nc3sc4c(c3c(=O)n2Cc2ccccc2)CC(C)C(Br)C4=O)c(Br)c(OC)c1OC (stereo not drawn)	-3
COCc1nc2sc3c(Cl)c(C=O)c(C(=O)O)c(O)c3c2c(=O)n1Cc1ccccc1	-6.8

1 = COc1cc(-c2nc3sc4c(c3c(=O)n2-c2ccccc2)CCCC4)cc(OC)c1OC
2 = CCC(C)Cn1c(-c2cc(OC)c(OC)c(OC)c2)nc2sc3c(c2c1=O)CCCC3=O (stereo not drawn)
Task for the reader: decide whether 1 or 2 has the larger inhibition at 1 µM. Identify your selection by its label. 1
(1: 18.1%, 2: 6.6%)
